For each entry below, report its IC50 value.
molecular target: Met kinase (Homo sapiens); experiment: Met kinase inhibition, flashplate method (enzyme); assay type: biochemical; parameters: 6His (N); purchased Upstate 14-526; host or cells: Sf21 insect cells (S. frugiperda), baculovirus
Sequence (P08581 25-1390): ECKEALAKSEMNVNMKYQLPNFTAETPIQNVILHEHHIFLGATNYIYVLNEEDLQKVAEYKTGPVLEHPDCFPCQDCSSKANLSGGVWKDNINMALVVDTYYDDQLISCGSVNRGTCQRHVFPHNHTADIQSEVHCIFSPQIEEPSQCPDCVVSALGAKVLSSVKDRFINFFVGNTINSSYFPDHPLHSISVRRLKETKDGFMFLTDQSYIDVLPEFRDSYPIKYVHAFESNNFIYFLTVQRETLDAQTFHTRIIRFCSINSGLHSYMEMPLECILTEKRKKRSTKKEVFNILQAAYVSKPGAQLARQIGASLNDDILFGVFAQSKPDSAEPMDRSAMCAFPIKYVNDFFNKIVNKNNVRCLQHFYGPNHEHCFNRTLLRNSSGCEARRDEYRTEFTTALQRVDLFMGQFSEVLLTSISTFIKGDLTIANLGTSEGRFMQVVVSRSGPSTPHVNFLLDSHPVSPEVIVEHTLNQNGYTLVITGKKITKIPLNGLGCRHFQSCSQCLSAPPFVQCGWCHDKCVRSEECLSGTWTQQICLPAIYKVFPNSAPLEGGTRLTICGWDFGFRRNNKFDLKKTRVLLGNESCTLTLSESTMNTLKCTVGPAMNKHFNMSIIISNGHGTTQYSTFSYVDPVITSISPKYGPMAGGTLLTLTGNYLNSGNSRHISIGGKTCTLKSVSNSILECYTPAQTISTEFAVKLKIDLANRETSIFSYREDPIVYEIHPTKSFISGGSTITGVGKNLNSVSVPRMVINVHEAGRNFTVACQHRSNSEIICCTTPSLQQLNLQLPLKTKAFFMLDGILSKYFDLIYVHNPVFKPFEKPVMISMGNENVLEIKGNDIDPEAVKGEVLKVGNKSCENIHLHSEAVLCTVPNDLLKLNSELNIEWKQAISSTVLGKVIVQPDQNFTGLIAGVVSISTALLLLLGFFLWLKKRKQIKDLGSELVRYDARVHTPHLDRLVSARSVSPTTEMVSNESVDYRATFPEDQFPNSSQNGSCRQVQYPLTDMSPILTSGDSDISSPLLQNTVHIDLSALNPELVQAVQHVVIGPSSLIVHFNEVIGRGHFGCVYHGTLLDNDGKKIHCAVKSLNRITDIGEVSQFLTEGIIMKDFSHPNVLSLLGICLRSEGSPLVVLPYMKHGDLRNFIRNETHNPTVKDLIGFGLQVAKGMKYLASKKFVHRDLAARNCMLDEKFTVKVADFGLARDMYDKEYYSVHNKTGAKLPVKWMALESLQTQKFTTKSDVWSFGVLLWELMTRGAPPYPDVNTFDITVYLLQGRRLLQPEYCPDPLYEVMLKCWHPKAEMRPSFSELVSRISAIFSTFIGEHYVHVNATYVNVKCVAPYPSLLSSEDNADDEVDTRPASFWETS
Counter-ions that a name gives are not always drawn.

Below, 3 compounds whose answers are already recorded.
{"columns": ["compound", "assay-target", "attribute-measured", "readout-value"],
 "data": [
  ["O=c1ccc(Nc2ccccc2)nn1Cc1cccc(-c2ncc(-c3cnn(C4CCNCC4)c3)cn2)c1", "Met kinase (Homo sapiens)", "IC50", "1 to 100 nM"],
  ["CN(C)CCCOc1cnc(-c2cccc(Cn3nc(Nc4ccccc4)ccc3=O)c2)nc1", "Met kinase (Homo sapiens)", "IC50", "1 to 100 nM"],
  ["CN(C)CCCOc1cnc(-c2cccc(Cn3nc(C(N)=O)ccc3=O)c2)nc1", "Met kinase (Homo sapiens)", "IC50", "100 to 10000 nM"]
]}

I'm hoping you can list IC50 for every compound here, please.
1. O=c1ccc(Oc2ccccc2)nn1Cc1cccc(-c2ncc(-c3cnn(CCN4CCCC4)c3)cn2)c1
2. O=c1ccc(Oc2ccccc2)nn1Cc1cccc(-c2ncc(-c3cnn(C4CCNCC4)c3)cn2)c1 [Compound A4, hydrochloride]

Response line:
1. 1 to 100 nM
2. 100 to 10000 nM
